Tested on: human SMAD7 mRNA
EXPERIMENT_DESCRIPTION: Antisense inhibition of human SMAD7 mRNA expression in Hep3B cells by 3-10-3 cEt gapmers, 10,000 nM, electroporation (Example 2)
Assay type: cell-based
TEST_CONTEXT: SMAD7 mRNA, Hep3B cells, electroporation with 10,000 nM antisense oligonucleotide, approximately 24 hours, primer probe set RTS5062, relative to untreated control cells
Strand notation (5' to 3'): a small letter for the sugar, then the base; units joined by * are phosphorothioate-linked, units joined directly phosphodiester-linked; [ ] holds rarer units or linkages, { } end groups; capitals alone tell only the bases. k = constrained ethyl (cEt); [5mC] = 5-methylcytosine; d = 2'-deoxy (DNA)
READOUT_KIND: % Inhibition (%)
Answers are plain numbers, in %.

Before answering, review these 5 worked examples.
830003 (antisense kG*kG*k[5mC]*dA*dT*dT*d[5mC]*dT*dT*dT*dT*dA*dG*k[5mC]*k[5mC]*k[5mC]) [compound 830003] ... 0
829948 (k[5mC]*kG*kG*dG*d[5mC]*dA*dG*d[5mC]*d[5mC]*dA*dG*dT*dT*kA*kA*kT; antisense) [compound 829948] ... 43
829913 (antisense k[5mC]*k[5mC]*kT*dT*dG*dG*dG*dT*dT*dA*dT*dG*dA*k[5mC]*kG*kG) [compound 829913] ... 40
829912 (antisense kA*kA*k[5mC]*dG*dA*d[5mC]*d[5mC]*dA*dA*dA*dG*dA*dG*kT*kT*kT) [compound 829912] ... 24
829906 (antisense k[5mC]*k[5mC]*kG*dG*d[5mC]*dT*dG*dT*dT*dG*dA*dA*dG*kA*kT*kG) [compound 829906] ... 0

Could you tell me which % Inhibition is on file for 830001 (kG*k[5mC]*k[5mC]*d[5mC]*dA*dA*d[5mC]*dT*dG*dT*dT*dT*dG*kT*k[5mC]*kT; antisense) [compound 830001] ?
24

// provenance: patent US10517889B2
